Biological target: T1, rhCD73 bound to his-tag magnet beads (human, UniProt P21589 27-549, limits assumed)
T1 sequence: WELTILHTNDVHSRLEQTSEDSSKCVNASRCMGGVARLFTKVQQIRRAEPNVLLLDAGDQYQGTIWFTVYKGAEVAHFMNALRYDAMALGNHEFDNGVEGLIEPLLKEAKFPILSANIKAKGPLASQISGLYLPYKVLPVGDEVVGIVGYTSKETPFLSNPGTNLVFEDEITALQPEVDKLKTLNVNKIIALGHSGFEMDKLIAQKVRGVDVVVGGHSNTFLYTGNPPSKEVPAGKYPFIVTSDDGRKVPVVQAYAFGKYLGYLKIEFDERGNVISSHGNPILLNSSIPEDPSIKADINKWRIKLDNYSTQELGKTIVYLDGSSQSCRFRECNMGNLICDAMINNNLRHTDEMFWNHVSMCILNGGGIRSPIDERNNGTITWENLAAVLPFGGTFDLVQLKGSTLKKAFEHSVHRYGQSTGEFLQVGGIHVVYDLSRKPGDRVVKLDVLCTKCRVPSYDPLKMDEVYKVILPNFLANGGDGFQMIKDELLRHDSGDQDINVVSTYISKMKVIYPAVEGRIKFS
Assay: cell-based or functional assay
measurement name: EC50 (nM), inhibition of bead-bound rhCD73 enzymatic activity

11A6 (antibody, human IgG1, kappa, V domains shown, IgG1za from hybridoma; also called 11A6-1) VH: EVQLVESGGNLVQPGRSLRLSCAASGFTFDDYAMHWVRQAPGKGLEWVSGISWNNNDIGYADSVKGRFIISRDNAKNSLYLQMNSLRPEDTALYYCVKGYYVILTGLDYWGQGTPVTVSS VL: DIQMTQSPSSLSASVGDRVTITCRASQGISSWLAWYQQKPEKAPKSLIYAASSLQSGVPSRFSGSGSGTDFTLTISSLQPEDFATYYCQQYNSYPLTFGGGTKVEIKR	3.12 nM
10D2 (antibody, human IgG4, kappa, V domains shown, also called 10D2-2) VH: QVQLVESGGGVVQPGRSLRLSCAASGFTFSNYGLHWVRQAPGKGLEWVAVIRYDGSNKYYADSVKGRFTISRDNSKNTLYLQMSSLRAEDTAVYYCARGGSSWYPDGLDVWGQGTTVTVSS VL: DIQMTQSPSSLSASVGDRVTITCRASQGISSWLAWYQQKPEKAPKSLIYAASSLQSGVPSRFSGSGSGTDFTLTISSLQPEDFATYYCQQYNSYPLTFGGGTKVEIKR	6.94 nM

Attention now turns to another entry.
stdin: Given 5F8 (antibody, human IgG1, kappa, V domains shown, IgG1za from hybridoma; predominant light chain VK1, VK2 also expressed; also called 5F8-1) VH: EVQLVESGGGLVQPGGSLRLSCAASGFTFSSYWMHWVRQAPGKGLVWVSRIISDGSSTGYADSVKGRFTISRDNAKNTLYLQMNSLRAEDTAVYYCAREFSSGWYFDYWGQGTLVTVSS VL: AIQLTQSPSSLSASVGDRVTITCRASQGISSALAWYQQKPGKAPKLLIYDASSLESGVPSRFSGSGSGTDFTLTISSLQPEDFATYYCQQFSSYPRTFGQGTKVEIKR , state its recorded EC50 (nM), inhibition of bead-bound rhCD73 enzymatic activity.
stdout: 5.76 nM

Values from patent US20230051701A1
